test: Solubility of ziprasidone from conjugates in phosphate buffered saline (HPLC); type: physicochemical; conditions: phosphate buffered saline, pH 7.4, aqueous buffer, thermodynamic from solid, PBS, time point 24 hours, continuous agitation, read-out: Solubility of ziprasidone, Sample Conc., 24 hours

>  <compound>
O=C1Cc2cc(CCN3CCN(c4nsc5ccccc45)CC3)c(Cl)cc2N1 [Ziprasidone Free Base]

>  <display-unit>
µg/mL

>  <solubility at 24 h>
2

$$$$

Source listed as patent US20040147532A1.
